assay: Cytotoxicity against human WM9 cells assessed as reduction in cell viability after 48 hrs by MTT assay; type: functional, cell-based; conditions: Homo sapiens, WM9, 48 h
Documented IC50 across a set of molecules
Give your result in µM as a bare value.

Take a look at these entries with their results.
INSERT INTO assay_data (given_smiles, measurement_kind, assay_result) VALUES
  ('COc1ccc(NC(=O)Nc2cc(OC)c3cc2C[C@H]2c4c(cc(OC)c(OC)c4Oc4cc5c(cc4OC)CCN(C)[C@H]5Cc4ccc(cc4)O3)CCN2C)cc1', 'IC50', 5.01),
  ('COc1cc(NC(=O)NCCCl)c2cc1Oc1ccc(cc1)C[C@H]1c3cc(c(OC)cc3CCN1C)Oc1c(OC)c(OC)cc3c1[C@H](C2)N(C)CC3', 'IC50', 4.18);

Let us examine a further case.
IN: Consider the molecule shown here: COc1cc(NC(=O)N2CCN(S(C)(=O)=O)C2=O)c2cc1Oc1ccc(cc1)C[C@H]1c3cc(c(OC)cc3CCN1C)Oc1c(OC)c(OC)cc3c1[C@H](C2)N(C)CC3 What is its recorded IC50?
OUT: 3.76

====

test system: HEL; test: Cytotoxicity against human HEL cells assessed as reduction in cell viability after 48 hrs by MTT assay; format: functional, cell-based; conditions: hel
Measurement Kind: pIC50
pIC50 here: minus log base 10 of the concentration, concentration in moles per litre.

INSERT INTO assay_data (given_smiles, assay_result) VALUES
  ('COc1cc(NC(=S)Nc2ccc(F)cc2)c2cc1Oc1ccc(cc1)C[C@H]1c3cc(c(OC)cc3CCN1C)Oc1c(OC)c(OC)cc3c1[C@H](C2)N(C)CC3', 5.86),
  ('CCCCNC(=S)Nc1cc(OC)c2cc1C[C@H]1c3c(cc(OC)c(OC)c3Oc3cc4c(cc3OC)CCN(C)[C@H]4Cc3ccc(cc3)O2)CCN1C', 5.71),
  ('COc1ccc2cc1Oc1ccc(cc1)C[C@H]1c3cc(c(OC)cc3CCN1C)Oc1c(OC)c(OC)cc3c1[C@H](C2)N(C)CC3', 5.00),
  ('CCCCNC(=O)Nc1cc(OC)c2cc1C[C@H]1c3c(cc(OC)c(OC)c3Oc3cc4c(cc3OC)CCN(C)[C@H]4Cc3ccc(cc3)O2)CCN1C', 5.57);

IN: Consider the compound shown here: COc1cc(NC(=O)Nc2ccc(F)cc2)c2cc1Oc1ccc(cc1)C[C@H]1c3cc(c(OC)cc3CCN1C)Oc1c(OC)c(OC)cc3c1[C@H](C2)N(C)CC3 What is its recorded pIC50?
OUT: 5.59

====

test system: K562; assay: Cytotoxicity against human K562 cells assessed as reduction in cell viability after 48 hrs by MTT assay; format: functional, cell-based; conditions: Homo sapiens, K562, 48 h
Measurement Kind: IC50 (µM)
Give your result in µM as a bare value.

Take a look at these entries with their results.
INSERT INTO assay_data (given_smiles, system, units, assay_result) VALUES
  ('COc1cc(NC(=O)Nc2ccc(C(F)(F)F)cc2)c2cc1Oc1ccc(cc1)C[C@H]1c3cc(c(OC)cc3CCN1C)Oc1c(OC)c(OC)cc3c1[C@H](C2)N(C)CC3', 'K562', 'µM', 1.74),
  ('O=c1[nH]cc(F)c(=O)[nH]1', 'K562', 'µM', 9.49),
  ('COc1cc(NC(=O)NC(C)(C)C)c2cc1Oc1ccc(cc1)C[C@H]1c3cc(c(OC)cc3CCN1C)Oc1c(OC)c(OC)cc3c1[C@H](C2)N(C)CC3', 'K562', 'µM', 4.89),
  ('COc1cc(NC(=O)Nc2cccc(Cl)c2)c2cc1Oc1ccc(cc1)C[C@H]1c3cc(c(OC)cc3CCN1C)Oc1c(OC)c(OC)cc3c1[C@H](C2)N(C)CC3', 'K562', 'µM', 2.02),
  ('COc1cc(NC(=O)Nc2ccc(F)cc2)c2cc1Oc1ccc(cc1)C[C@H]1c3cc(c(OC)cc3CCN1C)Oc1c(OC)c(OC)cc3c1[C@H](C2)N(C)CC3', 'K562', 'µM', 1.81);

IN: Consider the compound shown here: COc1cc(NC(=O)NCc2ccccc2)c2cc1Oc1ccc(cc1)C[C@H]1c3cc(c(OC)cc3CCN1C)Oc1c(OC)c(OC)cc3c1[C@H](C2)N(C)CC3 What is its recorded IC50?
OUT: 4.59

IN: Consider the compound shown here: COc1cc(NC(=O)N2CCN(S(C)(=O)=O)C2=O)c2cc1Oc1ccc(cc1)C[C@H]1c3cc(c(OC)cc3CCN1C)Oc1c(OC)c(OC)cc3c1[C@H](C2)N(C)CC3 What is its recorded IC50?
OUT: 3.06

IN: Consider the compound shown here: CCCNC(=O)Nc1cc(OC)c2cc1C[C@H]1c3c(cc(OC)c(OC)c3Oc3cc4c(cc3OC)CCN(C)[C@H]4Cc3ccc(cc3)O2)CCN1C What is its recorded IC50?
OUT: 5.09

====

system: MDA-MB-231; assay: Cytotoxicity against human MDA-MB-231 cells assessed as reduction in cell viability after 48 hrs by MTT assay; format: functional, cell-based; details: Homo sapiens, MDA-MB-231, 48 h
Documented pIC50 across a set of compounds
pIC50 here: minus log base 10 of the concentration, concentration in moles per litre.

Take a look at these entries with their results.
INSERT INTO assay_data (given_smiles, assay_result) VALUES
  ('COc1cc(NC(=O)NC(C)(C)C)c2cc1Oc1ccc(cc1)C[C@H]1c3cc(c(OC)cc3CCN1C)Oc1c(OC)c(OC)cc3c1[C@H](C2)N(C)CC3', 4.90),
  ('COc1cc(NC(=O)NCCCl)c2cc1Oc1ccc(cc1)C[C@H]1c3cc(c(OC)cc3CCN1C)Oc1c(OC)c(OC)cc3c1[C@H](C2)N(C)CC3', 4.88),
  ('COc1ccc(NC(=O)Nc2cc(OC)c3cc2C[C@H]2c4c(cc(OC)c(OC)c4Oc4cc5c(cc4OC)CCN(C)[C@H]5Cc4ccc(cc4)O3)CCN2C)cc1', 4.99),
  ('COc1cc(NC(=O)Nc2cccc(Cl)c2)c2cc1Oc1ccc(cc1)C[C@H]1c3cc(c(OC)cc3CCN1C)Oc1c(OC)c(OC)cc3c1[C@H](C2)N(C)CC3', 5.04),
  ('COc1cc(NC(=O)Nc2ccc(Cl)c(C(F)(F)F)c2)c2cc1Oc1ccc(cc1)C[C@H]1c3cc(c(OC)cc3CCN1C)Oc1c(OC)c(OC)cc3c1[C@H](C2)N(C)CC3', 4.99);

IN: Consider the compound shown here: COc1cc(NC(=O)NC2CCCC2)c2cc1Oc1ccc(cc1)C[C@H]1c3cc(c(OC)cc3CCN1C)Oc1c(OC)c(OC)cc3c1[C@H](C2)N(C)CC3 What is its recorded pIC50?
OUT: 4.88

IN: Consider the compound shown here: COc1cc(NC(=O)N2CCOCC2)c2cc1Oc1ccc(cc1)C[C@H]1c3cc(c(OC)cc3CCN1C)Oc1c(OC)c(OC)cc3c1[C@H](C2)N(C)CC3 What is its recorded pIC50?
OUT: 5.14

IN: Consider the compound shown here: COc1cc(NC(=O)Nc2cccc(C)c2)c2cc1Oc1ccc(cc1)C[C@H]1c3cc(c(OC)cc3CCN1C)Oc1c(OC)c(OC)cc3c1[C@H](C2)N(C)CC3 What is its recorded pIC50?
OUT: 4.98

IN: Consider the compound shown here: COc1cc(NC(=O)Nc2ccc(C)cc2)c2cc1Oc1ccc(cc1)C[C@H]1c3cc(c(OC)cc3CCN1C)Oc1c(OC)c(OC)cc3c1[C@H](C2)N(C)CC3 What is its recorded pIC50?
OUT: 5.14

IN: Consider the compound shown here: CNC(=S)Nc1cc(OC)c2cc1C[C@H]1c3c(cc(OC)c(OC)c3Oc3cc4c(cc3OC)CCN(C)[C@H]4Cc3ccc(cc3)O2)CCN1C What is its recorded pIC50?
OUT: 4.87

====

test system: PC-3; assay: Cytotoxicity against human PC3 cells assessed as reduction in cell viability after 48 hrs by MTT assay; type: functional, cell-based; conditions: Homo sapiens, PC-3, 48 h
Measurement Kind: pIC50
pIC50 here: minus log base 10 of the concentration, concentration in moles per litre.

Take a look at these entries with their results.
INSERT INTO results (given_smiles, system, assay_result) VALUES
  ('COc1cc(NC(=S)NC(C)C)c2cc1Oc1ccc(cc1)C[C@H]1c3cc(c(OC)cc3CCN1C)Oc1c(OC)c(OC)cc3c1[C@H](C2)N(C)CC3', 'PC-3', 5.68),
  ('COc1cc(NC(=S)Nc2ccc(C)cc2)c2cc1Oc1ccc(cc1)C[C@H]1c3cc(c(OC)cc3CCN1C)Oc1c(OC)c(OC)cc3c1[C@H](C2)N(C)CC3', 'PC-3', 5.27),
  ('CNC(=O)Nc1cc(OC)c2cc1C[C@H]1c3c(cc(OC)c(OC)c3Oc3cc4c(cc3OC)CCN(C)[C@H]4Cc3ccc(cc3)O2)CCN1C', 'PC-3', 5.77),
  ('CNC(=S)Nc1cc(OC)c2cc1C[C@H]1c3c(cc(OC)c(OC)c3Oc3cc4c(cc3OC)CCN(C)[C@H]4Cc3ccc(cc3)O2)CCN1C', 'PC-3', 5.19),
  ('COc1cc(NC(=O)Nc2ccc(OC(F)(F)F)cc2)c2cc1Oc1ccc(cc1)C[C@H]1c3cc(c(OC)cc3CCN1C)Oc1c(OC)c(OC)cc3c1[C@H](C2)N(C)CC3', 'PC-3', 6.13),
  ('CCCCNC(=O)Nc1cc(OC)c2cc1C[C@H]1c3c(cc(OC)c(OC)c3Oc3cc4c(cc3OC)CCN(C)[C@H]4Cc3ccc(cc3)O2)CCN1C', 'PC-3', 6.06);

IN: Consider the compound shown here: CCCNC(=O)Nc1cc(OC)c2cc1C[C@H]1c3c(cc(OC)c(OC)c3Oc3cc4c(cc3OC)CCN(C)[C@H]4Cc3ccc(cc3)O2)CCN1C What is its recorded pIC50?
OUT: 6.14

IN: Consider the compound shown here: COc1cc(NC(=O)Nc2ccc([N+](=O)[O-])cc2)c2cc1Oc1ccc(cc1)C[C@H]1c3cc(c(OC)cc3CCN1C)Oc1c(OC)c(OC)cc3c1[C@H](C2)N(C)CC3 What is its recorded pIC50?
OUT: 5.16
